FYI, the data here is from patent US20250026849A1.

- STUDY_SYSTEM: T1, BCMA (Homo sapiens (Human), UniProt Q02223 1-54, limits assumed)
- T1 sequence: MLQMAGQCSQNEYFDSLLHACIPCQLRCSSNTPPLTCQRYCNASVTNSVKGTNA
- MEASUREMENT_NOTES: ELISA, format not described
- Set-up: unit not given here
REPORTED_METRIC: ELISA_avg
One number for each entry.

Known ELISA_avg results, listed for orientation:
Given the entry D-domain SEQ ID NO: 218 (designed binder) MGSWVEFETRLDAIRMRLGALGGSEAELAAFEKEIAAFESELQAYKGKGNPEVEYLRFGAAHIRALLQAYRHN , report its measured ELISA_avg.
14.1

Quick one: D-domain SEQ ID NO: 113 (designed binder) MGSWNEFDNRLQAIWDRLHALGGSEAELAAFEKEIAAFESELQAYKGKGNPEVEELRFHAAMIRITLQAYRHN
9.87

// below: ELISA_avg requested for another binder
Entry D-domain SEQ ID NO: 194 (designed binder) MGSWVEFWDRLGAIRERLQALGGSEAELAAFEKEIAAFESELQAYKGKGNPEVEELRASAAAIRIALQAYRHN : reported ELISA_avg = ?
3.07
